system: LOX IMVI melanoma; experiment: NCI tumour cell line growth inhibition, 48 h
For each record, write down the corresponding TGI.

Enquiry: Request the reported TGI associated with COC(=O)C1=C(C(=O)OC)C2(C(=O)OC)OC1(OC)C(C1(C(=O)OC)C(C(=O)OC)=C1C(=O)OC)=C2C(=O)OC (centres undefined)
Return: > 100 µM

Enquiry: Next entry: CC(=O)OC[C@@]12C[C@H]3C(=O)C(C)(C)C[C@H]3[C@]1(C)[C@@H](OC(C)=O)[C@]1(O)[C@H]([C@@H](OC(=O)c3ccccc3)[C@@H](C)[C@H]1OC(C)=O)[C@H]2OC(C)=O
Return: > 20 µM

Enquiry: For Cc1nc(-c2nc([N+](=O)[O-])c([N+](=O)[O-])[nH]2)cs1 then?
Return: > 100 µM

Enquiry: Another compound to check: CC(C)(C)OC(=O)N1CCC23CCCC2C(=O)CC=C13 (centres undefined)
Return: > 100 µM

====

system: SNB-19 CNS; assay: NCI tumour cell line growth inhibition, 48 h
measuredQuantity: TGI (µM)
Give the number; µM is assumed, so skip it.

Enquiry: Could you share what TGI was measured for O=[N+]([O-])c1ccccc1C1N2CCCCC2[C@@H]2c3[nH]c4ccccc4c3CCN12 (stereo not given in full) , tested on SNB-19 CNS?
Return: 33.4

Enquiry: Follow-up item: COc1ccc(C(Nc2ncccn2)c2cc3c(cc2O)OCO3)cc1 (stereo not given)
Return: 31.1

Enquiry: Please answer likewise for CCN(CC)CCNc1ccc(C)c2sc3ccc(O)cc3c(=O)c12
Return: 15.6

Enquiry: Then what about the molecule O=Nc1c(O)ccc2ccccc12 ?
Return: 28.2

====

system: KM12 colon; assay: NCI tumour cell line growth inhibition, 48 h
Task for the reader: assign each of the following compounds its reported TGI.
Give the value in µM but do not write µM after it.

Enquiry: Requested field: TGI. Item: O=c1nc2cc(-c3ccccc3)[nH]c2nn1-c1c(Cl)cc(Cl)cc1Cl
Return: 39.2

Enquiry: Please answer likewise for COc1ccc2c3c(c(OCCCN(C)C)nc2c1)-c1ccc(Cl)cc1C3=O
Return: 18

Enquiry: Same for Cc1ccc2c(O)c3c(cc2c1)C(=O)c1c2c(cc(O)c1C3=O)C1(C)OC(O2)C(O)C(N(C)C)C1O (centres undefined)
Return: 2.77

Enquiry: And the next one, C=CCn1c(=O)c(C)cn(/C(=C/C(=O)OCC)C(=O)OCC)c1=O ?
Return: 36

Enquiry: Proceed to Cc1cc(C)nc(NS(=O)(=O)c2ccc(NC(=O)c3cccc4cc5ccccc5nc34)cc2)n1
Return: 84.9

Enquiry: Also need c1ccc(-c2nc(N3CCNCC3)c3nc(-c4ccccc4)oc3n2)cc1 , thanks.
Return: 3.6

Enquiry: Now the same for CCCCCCCSCC(O)COC(c1ccccc1)(c1ccccc1)c1ccccc1 (centres undefined)
Return: 16.9

Enquiry: And what about the compound COc1ccc(/C=C2\N=C3SC=C(N)N3C2=O)cc1 ?
Return: 15.6

Enquiry: Entry Oc1c(CN2CCCC2)cc(COCc2ccccc2)c2cccnc12 please
Return: 18.2

Enquiry: What about CC(C)(C)CC(C)(C)c1ccc(OCCOCCSC(=N)N)cc1 ?
Return: 3.33

Enquiry: Also need CC(=O)OC1CCC2(C)C(=CC(C3C=C4CC(OC(C)=O)CCC4(C)C4=C3C3CC5OC6(CCC(C)CO6)C(C)C5C3(C)CC4)C3=C2CCC2(C)C3CC3OC4(CCC(C)CO4)C(C)C32)C1 (centres undefined) , thanks.
Return: 35.7

Enquiry: Please give the result for Oc1ccccc1-n1c(-c2ccccc2)ccc1-c1ccccc1 too.
Return: 19.3

Enquiry: Next record, please: Cc1[nH]c2ccccc2c1C=Nc1ccc(Oc2ccccc2)cc1
Return: 31.4

Enquiry: Continue with CC1=C(C(=O)OC(C)C)C(c2ccccc2[N+](=O)[O-])C(C(=O)OC(CO[N+](=O)[O-])CO[N+](=O)[O-])=C(C)N1 (centres undefined)
Return: 22.8

Enquiry: Also check O=Nc1c(O)ccc2ccccc12
Return: 18.4

Enquiry: Follow-up entry: O=C(CCN1CCCC1)Nc1ccc2c(NCCCc3ccccc3)c3ccccc3nc2c1
Return: 2.54

Enquiry: CC(C)[Si](OC1=CCCCCC12C(=O)N(C)c1ccccc12)(C(C)C)C(C)C (centres undefined) ?
Return: 38

Enquiry: Input Cc1cn(C2CC(N=[N+]=[N-])C(CO[Si](C)(C)C(C)(C)C)O2)c(=O)[nH]c1=O (centres undefined)
Return: 32.5

Enquiry: Also O=C(/C=C/c1ccc(O)c(O)c1)OCCOC(=O)/C=C/c1ccc(O)c(O)c1 , if possible.
Return: 41.8

Attribution: PubChem BioAssay (NCI)
